System: Enterobacter cloacae
PROTOCOL_TEXT: Minimum inhibitory concentration (MIC)preventing growth of Enterobacter cloacae
Type: functional
OUTCOME_MEASURE: MIC (µg/mL)
Express the result in µg/mL but write the number alone.

Worked cases, answers included:
structure_string=CCNC1CN(c2cc3c(cc2F)c(=O)c(C(=O)O)cn3C2CC2)C1 target_desc="Enterobacter cloacae" endpoint_value=0.06
structure_string=CCNCC1CN(c2cc3c(cc2F)c(=O)c(C(=O)O)cn3C2CC2)C1 target_desc="Enterobacter cloacae" endpoint_value=0.12
structure_string=CC1(N)CN(c2cc3c(cc2F)c(=O)c(C(=O)O)cn3-c2ccc(F)cc2)C1 target_desc="Enterobacter cloacae" endpoint_value=0.12
structure_string=O=C(O)c1cn(C2CC2)c2c(F)c(N3CC(O)C3)c(F)cc2c1=O target_desc="Enterobacter cloacae" endpoint_value=0.06

query: MIC for `CC1(N)CN(c2c(F)cc3c(=O)c(C(=O)O)cn(-c4ccc(F)cc4F)c3c2F)C1` ?
result: 0.25

query: Could you tell me which MIC is on file for `CC1(n2cccc2)CN(c2c(F)cc3c(=O)c(C(=O)O)cn(C4CC4)c3c2F)C1` ?
result: 2

query: // lookup MIC for `CCC1(O)CN(c2cc3c(cc2F)c(=O)c(C(=O)O)cn3C2CC2)C1`
result: 0.25

query: I'd like to know its MIC. The compound in question is `CN(C)C1(C)CN(c2cc3c(cc2F)c(=O)c(C(=O)O)cn3C2CC2)C1`
result: 0.25

query: Please look up its MIC: `NC1CN(c2nc3c(cc2F)c(=O)c(C(=O)O)cn3-c2ccc(F)cc2F)C1`
result: 0.12
